- System: L1210 leukemia ip in BDF1 mice, survival T/C
- EXPERIMENT: NCI In Vivo Anticancer Drug Screen. Data for tumor model L1210 Leukemia (intraperitoneal) in B6D2F1 (BDF1) mice
- TEST SETTINGS: endpoint: mean survival time; dose: 200.0 mg/kg/injection; schedule: Q04DX003 (ip); vehicle: saline with Tween-80; higher = longer survival
Toxic doses and inconclusive results are not listed.
PARAMETER MEASURED: T/C

Example cases with answers are listed next.
> print(dat)
                                   compound   recorded.value
1  NC(=O)CC(NC(=O)OCc1ccccc1)C(=O)OCc1ccccc1 (stereo not drawn)  96 % of control
2                       CC(=O)c1cc(C)c(C)s1  96 % of control

Now take the following compound into account.
Record request: T/C value, item CC(=O)NC(C)C
100 % of control

====

- Test system: L1210 leukemia ip in BDF1 mice, survival T/C
- EXPERIMENT: NCI In Vivo Anticancer Drug Screen. Data for tumor model L1210 Leukemia (intraperitoneal) in B6D2F1 (BDF1) mice
- TEST SETTINGS: endpoint: mean survival time; dose: 100.0 mg/kg/injection; schedule: Q01DX009 (ip); vehicle: other; higher = longer survival
Toxic doses and inconclusive results are not listed.
Here, each record is paired with measured T/C data.

Example cases with answers are listed next.
> print(dat)
                                   molecule                          target.or.system  parameter.measured    recorded.value
1  COc1ccc(NC(Nc2ccc(OC)cc2)C(Cl)(Cl)Cl)cc1  L1210 leukemia ip in BDF1 mice, survival T/C                 T/C   90 % of control
2  CCOC(=O)C(Cl)c1ccc(OC)cc1 (centres undefined)  L1210 leukemia ip in BDF1 mice, survival T/C                 T/C  111 % of control
3  COc1cc(N(CCCl)CCCl)c(OC)cc1/C=N/NC(=O)CC(N)C(=O)O (centres undefined)  L1210 leukemia ip in BDF1 mice, survival T/C                 T/C  120 % of control

Record request: T/C value, item O=[N+]([O-])c1ccc(C(F)(F)F)cc1
101 % of control

Record request: T/C value, item CCn1c2ccccc2c2cc(C=O)ccc21
88 % of control

Record request: T/C value, item CCOC(=O)C(c1ccccc1)c1ccccc1
102 % of control

Record request: T/C value, item O=C(/C=C/c1cccc(Br)c1)c1ccc(Cl)cc1
92 % of control

Record request: T/C value, item CSCCC(C#N)(CCN(C)C)c1ccccc1 (centres undefined)
91 % of control

Record request: T/C value, item NC(Cc1c[nH]c2cc(F)ccc12)C(=O)O (centres undefined)
97 % of control

====

- Test system: L1210 leukemia ip in BDF1 mice, survival T/C
- EXPERIMENT: NCI In Vivo Anticancer Drug Screen. Data for tumor model L1210 Leukemia (intraperitoneal) in B6D2F1 (BDF1) mice
- TEST SETTINGS: endpoint: mean survival time; dose: 50.0 mg/kg/injection; schedule: Q01DX009 (ip); vehicle: carboxymethylcellulose (CMC); higher = longer survival
Toxic doses and inconclusive results are not listed.
PARAMETER MEASURED: T/C

Example cases with answers are listed next.
> print(dat)
                                   compound  parameter.measured    recorded.value
1  CCN(CC)C(=O)C(N)Cc1ccc(OC)c(N(CCCl)CCCl)c1 (centres undefined)                 T/C  104 % of control
2         NC(N)=N/N=C(/c1ccccc1)c1ccc(F)cc1                 T/C  115 % of control
3          O=C(CN1CC1)NCCCCCCCCNC(=O)CN1CC1                 T/C  104 % of control

Now take the following compound into account.
Record request: T/C value, item C#CCONC(=O)c1ccc(OC)cc1
98 % of control
